Origin of values: the RNAGym collection of RNA variant scans (doi:10.1002/anie.201605470)

B1: Osa-1-4 twister ribozyme (parent)
chain: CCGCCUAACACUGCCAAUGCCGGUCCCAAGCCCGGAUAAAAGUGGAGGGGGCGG

variants of: B1; test: self-cleavage, relative activity (ratio to wild type); higher = more cleavage; co-transcriptional

{"columns": ["mut", "self-cleavage"],
 "data": [
  ["A36U C27G", 0.09],
  ["G19U G34A", 0.52],
  ["G23C", 0.05],
  ["C31G U18G", 0.15]
]}
